- STUDY_TARGET: T1, PUF4 RNA-binding domain (Saccharomyces cerevisiae, UniProt P25339 537-888)
- T1 sequence: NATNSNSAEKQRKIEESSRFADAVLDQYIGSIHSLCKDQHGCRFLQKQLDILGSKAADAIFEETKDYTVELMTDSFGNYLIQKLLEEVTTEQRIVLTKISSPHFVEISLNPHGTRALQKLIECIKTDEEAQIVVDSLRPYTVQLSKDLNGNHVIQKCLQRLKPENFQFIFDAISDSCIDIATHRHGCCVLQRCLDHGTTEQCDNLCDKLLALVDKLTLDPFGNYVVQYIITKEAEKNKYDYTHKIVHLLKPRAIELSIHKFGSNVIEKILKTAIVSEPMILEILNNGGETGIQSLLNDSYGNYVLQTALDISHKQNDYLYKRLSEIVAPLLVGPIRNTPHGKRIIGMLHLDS
- METHOD: Mg; RNA-MaP; 20 mM Na-HEPES pH 7.4, 30 mM KOAc, 0.75 mM MgCl2, 0.1% Tween-20, 5% glycerol, 0.1 mg/mL BSA, 2 mM DTT; 25 C; 0.0125-409.6 nM protein
- MEASUREMENT_SETUP: tags: N-His6-TEV cleaved; C-SNAP kept, Cy3B-labelled; label: tethered on chip by stalled RNA polymerase
MEASURED_PARAMETER: pKd
// returns pKd (minus log10 of molar concentration), number only

BINDER: Ib_S2_P5E.1_K5.1_C5.1_H5.1_A5.1_F5.1_[T8A]_[A10C]_T5.1 (ssRNA) RNA: UUUGAUUAAUAUGAUAUCGUUCUUUCUUGUAUUAAUCUUCUUUCUCGAUAUCAUAUUAAUCUUU
DATA_VALUE: 6.74

BINDER: Ic_S2_P4E.1_K4.1_C4.1_H4.1_A4.1_[A6G]_F4.1_[T8A]_[A9C]_T4.1 (ssRNA) RNA: UUUGAUUAAUAUGAUAUCGUUCUUUCUUGUAUGUACUUCUUUCUCGAUAUCAUAUUAAUCUUU
DATA_VALUE: 7.25

BINDER: UCUCUUCGUGUAUAUAAUUCUCUU (ssRNA) [Id_ii_S1_P3E.2_K3.1_C3.2_[T-1G]_H3.1_A3.1_F3.1_T3.2_[T9A]_[A10T]]
DATA_VALUE: 8.07

For the binder shown here, UCUCUUUGUAUUAUCUCUCUU (ssRNA) [Ic_S1_P4E.1_K4.1_C4.1_H4.1_A4.1_[A6T]_[T7A]_F4.1_[A9C]_T4.1] , give the reported pKd.
7.71

For the binder shown here, Ie_S4_P4E.1_K4.1_C4.1_H4.1_[+3TTCCT]_A4.1_F4.1_T4.1 (ssRNA) RNA: UUUGACAACUGAUCGUUCUUUCUUGUUUCCUAUAUUAUUCUUUCUCGAUCAGUUGUCUUU , give the reported pKd.
7.64

For the binder shown here, UCUCUUUAUAUAUAUACUUCUCUU (ssRNA) [Id_ii_S1_P3E.3_K3.2_C3.2_[C-2T]_[T-1A]_H3.2_A3.1_F3.1_T3.2_[T9C]_[A10T]] , give the reported pKd.
6.76
